Provide the reported viability at 72 h, 0.000762939 uM of each item.
- Test Details: Cytotoxicity assay (CellTiter-Glo, 72 h), Jurkat
- Assay type: cell-based
- Conditions Used: human, Jurkat cells (T lymphoma), conc 0.000762939 uM, raw data (replicates)
- Method: Jurkat cells were cultured in RPMI1640 medium supplemented with 10% foetal bovine serum, penicillin (50 U/ml), streptomycin (50 μg/ml), and Glutamax. SKOV-3 cells were cultured in DMEM medium supplemented with 10% fetal bovine serum, penicillin (50 U/ml), and streptomycin (50 μg/ml). […] Cell viabilities were measured using a CellTiter-Glo luminescent cell viability assay and EnVision multilabel plate reader.

Molecule	Measured
CO[C@@H]1C[C@H](C[C@@H](C)[C@@H]2CC(=O)[C@H](C)/C=C(\C)[C@@H](O)[C@@H](OC)C(=O)[C@H](C)C[C@H](C)/C=C/C=C/C=C(\C)[C@H](O)C[C@@H]3CC[C@@H](C)[C@@](O)(O3)C(=O)C(=O)N3CCCC[C@H]3C(=O)O2)CC[C@H]1O [Compound 17, (16R)-16-O-demethyl rapamycin]	100%
CO[C@H]1C[C@@H]2CC[C@@H](C)[C@@](O)(O2)C(=O)C(=O)N2CCCC[C@H]2C(=O)O[C@H]([C@H](C)C[C@@H]2CC[C@@H](O)[C@H](OC)C2)CC(=O)[C@H](C)/C=C(\C)[C@@H](O)CC[C@H](C)/C=C/C=C/C=C/1C	100%
COC1CC2CCC(C)C(O)(O2)C(=O)C(=O)N2CCCCC2C(=O)OC(C(C)CC2CCC(O)C(OC)C2)CC(=O)C(C)C=C(C)C(O)CC(=O)C(C)C=C(C)C=CC=CC=C1C (stereo not shown)	99.9%

Moving on to another molecule below.
Ask: Name the recorded viability at 72 h, 0.000762939 uM for COC1CC2CCC(C)C(O)(O2)C(=O)C(=O)N2CCCCC2C(=O)OC(C(C)CC2CCC(O)C(OC)C2)CC(O)CC(=O)C(C)C=C(C)C(O)CC(=O)C(C)CC(C)C=CC=CC=C1C (stereo not shown) .
Reply: 103%

---

Please provide measured viability at 72 h, 0.0244141 uM for the entries that follow.
- Test Details: Cytotoxicity assay (CellTiter-Glo, 72 h), MESO-1
- Type: cell-based
- Conditions Used: human, MESO-1 malignant pleural mesothelioma cells, conc 0.0244141 uM; raw replicate data; read-out: MESO1 viability (%)
- Procedure: Jurkat cells were cultured in RPMI1640 medium supplemented with 10% foetal bovine serum, penicillin (50 U/ml), streptomycin (50 μg/ml), and Glutamax. SKOV-3 cells were cultured in DMEM medium supplemented with 10% fetal bovine serum, penicillin (50 U/ml), and streptomycin (50 μg/ml). […] Cell viabilities were measured using a CellTiter-Glo luminescent cell viability assay and EnVision multilabel plate reader.
Give bare numbers, in %.

Worked examples follow.
Compound	Measured
CO[C@@H]1C[C@H](C[C@@H](C)[C@@H]2CC(=O)[C@H](C)/C=C(\C)[C@@H](O)[C@@H](OC)C(=O)[C@H](C)C[C@H](C)/C=C/C=C/C=C(\C)[C@H](O)C[C@@H]3CC[C@@H](C)[C@@](O)(O3)C(=O)C(=O)N3CCCC[C@H]3C(=O)O2)CC[C@H]1O [Compound 17, (16R)-16-O-demethyl rapamycin]	86.9
CO[C@H]1C[C@@H]2CC[C@@H](C)[C@@](O)(O2)C(=O)C(=O)N2CCCC[C@H]2C(=O)O[C@H]([C@H](C)C[C@@H]2CC[C@@H](O)[C@H](OC)C2)CC(=O)[C@H](C)/C=C(\C)[C@@H](O)CC(=O)[C@H](C)C[C@H](C)/C=C/C=C(C)/C=C/1C [Compound 2, 27-demethoxy-19-methyl rapamycin]	103
CO[C@H]1C[C@@H]2CC[C@@H](C)[C@@](O)(O2)C(=O)C(=O)N2CCCC[C@H]2C(=O)O[C@H]([C@H](C)C[C@@H]2CC[C@@H](O)[C@H](OC)C2)CC(=O)[C@H](C)/C=C(\C)[C@@H](O)CC[C@H](C)/C=C/C=C/C=C/1C [Compound 7]	90.4
COC1CC2CCC(C)C(O)(O2)C(=O)C(=O)N2CCCCC2C(=O)OC(C(C)CC2CCC(O)C(OC)C2)CCC(C)C=C(C)C(O)C(OC)C(=O)C(C)CC(C)C=CC=CC=C1C (stereo not drawn) [Compound 16, 32-desketorapamycin]	74.4
COC1CC2CCC(C)C(O)(O2)C(=O)C(=O)N2CCCCC2C(=O)OC(C(C)CC2CCC(O)C(OC)C2)CC(=O)C(C)C=C(C)C(O)CC(=O)C(C)C=C(C)C=CC=CC=C1C (stereo not drawn) [Compound 14]	94.7
COC1CC2CCC(C)C(O)(O2)C(=O)C(=O)N2CCCCC2C(=O)OC(C(C)CC2CCC(O)C(OC)C2)CC(=O)C(C)C=C(C)C(O)C(OC)C(=O)C(C)CC(C)C=CCCC=C1C (stereo not drawn) [Compound 15, 19,20-dihidro-rapamycin]	92.1
CO[C@H]1C[C@@H]2CC[C@@H](C)[C@@](O)(O2)C(=O)C(=O)N2CCCC[C@H]2C(=O)O[C@H]([C@H](C)C[C@@H]2CC[C@@H](O)[C@H](OC)C2)CC(=O)[C@H](C)/C=C(\C)[C@@H](O)[C@@H](OC)C(=O)[C@H](C)C[C@H](C)/C=C/C=C/C=C/1C [Compound 1, rapamycin, reference compound]	75.2
CO[C@@H]1/C=C/C=C/[C@@H](C)C[C@@H](C)C(=O)C[C@H](O)/C(C)=C/[C@@H](C)C(=O)C[C@@H]([C@H](C)C[C@@H]2CC[C@@H](O)[C@H](OC)C2)OC(=O)[C@@H]2CCCCN2C(=O)C(=O)[C@]2(O)O[C@@H](CC[C@H]2C)C1 [Compound 9]	91

# next compound below
Ask: Consider the compound shown here: COC1CC2CCC(C)C(O)(O2)C(=O)C(=O)N2CCCCC2C(=O)OC(C(C)CC2CCC(O)C(OC)C2)CC(O)CC(=O)C(C)C=C(C)C(O)CC(=O)C(C)CC(C)C=CC=CC=C1C (stereo not drawn) [Compound 13] What is its recorded viability at 72 h, 0.0244141 uM?
Reply: 95.9

Data origin: paper PMC7419507
